Data provenance: patent US20100311648A1

Each entry below carries its recorded Ki.
# Target of assay: T1, human melanocortin-4 receptor (human, UniProt P32245 1-332)
# T1 construct: whole, on cells; functional assay: HEK293-T-REx-MC4-R cells induced with 0.1 or 10 ng/mL doxycycline; also called hMC4-R; MC4-R
# T1 sequence (P32245 whole entry): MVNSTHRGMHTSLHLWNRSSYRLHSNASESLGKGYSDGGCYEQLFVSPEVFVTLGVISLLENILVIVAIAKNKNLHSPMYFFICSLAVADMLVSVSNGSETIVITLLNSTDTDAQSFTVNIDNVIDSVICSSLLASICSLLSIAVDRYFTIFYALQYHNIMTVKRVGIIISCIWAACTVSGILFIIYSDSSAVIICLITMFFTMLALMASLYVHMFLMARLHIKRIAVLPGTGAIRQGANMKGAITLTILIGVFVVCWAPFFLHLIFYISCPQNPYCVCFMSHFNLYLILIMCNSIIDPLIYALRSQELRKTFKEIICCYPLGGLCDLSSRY
# Procedure details: [I125]-NDP-α-MSH competition, hMC4-R HEK-293 membranes
Positions of bridges follow the written chain, without caps; N, C: chain ends. Non-standard residues stand in square brackets, D forms with d. dPhe(2-CF3) = N[C@H](Cc1ccccc1C(F)(F)F)C(=O)O; dPhe(4-CN) = N#Cc1ccc(C[C@@H](N)C(=O)O)cc1; dPhe(3-Cl) = N[C@H](Cc1cccc(Cl)c1)C(=O)O; dPhe(2-Cl) = N[C@H](Cc1ccccc1Cl)C(=O)O; dPhe(4-F) = N[C@H](Cc1ccc(F)cc1)C(=O)O; dPhe(2-F) = N[C@H](Cc1ccccc1F)C(=O)O; Orn = NCCC[C@H](N)C(=O)O
Form entry: value (nM) — number only.

binder="Ac-REN[dPhe(2-CF3)]RW[Orn]-NH2 (lactam 2-7, also called No. 116) [Ac-Arg-cyclo(Glu-Asn-D-Phe(2-CF3)-Arg-Trp-Orn)-NH2]" readout=Ki measurement_unit=nM reported_value=7
binder="Ac-REN[dPhe(4-CN)]RW[Orn]-OH (lactam 2-7, also called No. 85) [Ac-Arg-cyclo(Glu-Asn-D-Phe(4-CN)-Arg-Trp-Orn)-OH]" readout=Ki measurement_unit=nM reported_value=64
binder="XDQXRWK (N-terminal Ac; D-Arg 1; D-Phe(4-F) 4; lactam Asp 2-Lys 7; C-terminal NH2, also called No. 83) [Ac-D-Arg-cyclo(Asp-Gln-D-Phe(4-F)-Arg-Trp-Lys)-NH2]" readout=Ki measurement_unit=nM reported_value=6
binder="Ac-RET[dPhe(2-Cl)]RW[Orn]-NH2 (lactam 2-7; SMILES CC(=O)N[C@@H](CCCNC(=N)N)C(=O)N[C@H]1CCC(=O)NCCC[C@@H](C(N)=O)NC(=O)[C@H](Cc2c[nH]c3ccccc23)NC(=O)[C@H](CCCNC(=N)N)NC(=O)[C@@H](Cc2ccccc2Cl)NC(=O)[C@H]([C@@H](C)O)NC1=O, also called No. 32) [Ac-Arg-cyclo(Glu-Thr-D-Phe(2-Cl)-Arg-Trp-Orn)-NH2]" readout=Ki measurement_unit=nM reported_value=11
binder="Ac-REV[dPhe(4-CN)]RW[Orn]-NH2 (lactam 2-7, also called No. 42) [Ac-Arg-cyclo(Glu-Val-D-Phe(4-CN)-Arg-Trp-Orn)-NH2]" readout=Ki measurement_unit=nM reported_value=6
binder="Ac-R[Orn]N[dPhe(4-F)]RWE-NH2 (lactam 2-7, also called No. 70) [Ac-Arg-cyclo(Orn-Asn-D-Phe(4-F)-Arg-Trp-Glu)-NH2]" readout=Ki measurement_unit=nM reported_value=3
binder="Ac-REQ[dPhe(3-Cl)]RW[Orn]-NH2 (lactam 2-7, also called No. 38) [Ac-Arg-cyclo(Glu-Gln-D-Phe(3-Cl)-Arg-Trp-Orn)-NH2]" readout=Ki measurement_unit=nM reported_value=3
binder="Ac-R[Orn]N[dPhe(4-CN)]RWE-NH2 (lactam 2-7, also called No. 91) [Ac-Arg-cyclo(Orn-Asn-D-Phe(4-CN)-Arg-Trp-Glu)-NH2]" readout=Ki measurement_unit=nM reported_value=4
binder="Ac-RES[dPhe(4-CN)]RW[Orn]-NH2 (lactam 2-7; SMILES CC(=O)N[C@@H](CCCNC(=N)N)C(=O)N[C@H]1CCC(=O)NCCC[C@@H](C(N)=O)NC(=O)[C@H](Cc2c[nH]c3ccccc23)NC(=O)[C@H](CCCNC(=N)N)NC(=O)[C@@H](Cc2ccc(C#N)cc2)NC(=O)[C@H](CO)NC1=O, also called No. 45) [Ac-Arg-cyclo(Glu-Ser-D-Phe(4-CN)-Arg-Trp-Orn)-NH2]" readout=Ki measurement_unit=nM reported_value=10
binder="Ac-REP[dPhe(2-F)]RW[Orn]-NH2 (lactam 2-7; SMILES CC(=O)N[C@@H](CCCNC(=N)N)C(=O)N[C@H]1CCC(=O)NCCC[C@@H](C(N)=O)NC(=O)[C@H](Cc2c[nH]c3ccccc23)NC(=O)[C@H](CCCNC(=N)N)NC(=O)[C@@H](Cc2ccccc2F)NC(=O)[C@@H]2CCCN2C1=O, also called No. 66) [Ac-Arg-cyclo(Glu-Pro-D-Phe(2-F)-Arg-Trp-Orn)-NH2]" readout=Ki measurement_unit=nM reported_value=6

Task: So what does the record say about Ki for Ac-REP[dPhe(4-F)]RW[Orn]-OH (lactam 2-7; SMILES CC(=O)N[C@@H](CCCNC(=N)N)C(=O)N[C@H]1CCC(=O)NCCC[C@@H](C(=O)O)NC(=O)[C@H](Cc2c[nH]c3ccccc23)NC(=O)[C@H](CCCNC(=N)N)NC(=O)[C@@H](Cc2ccc(F)cc2)NC(=O)[C@@H]2CCCN2C1=O) [Ac-Arg-cyclo(Glu-Pro-D-Phe(4-F)-Arg-Trp-Orn)-OH] ?
Result: 30

Task: So what does the record say about Ki for Ac-REN[dPhe(2-Cl)]RW[Orn]-NH2 (lactam 2-7; SMILES CC(=O)N[C@@H](CCCNC(=N)N)C(=O)N[C@H]1CCC(=O)NCCC[C@@H](C(N)=O)NC(=O)[C@H](Cc2c[nH]c3ccccc23)NC(=O)[C@H](CCCNC(=N)N)NC(=O)[C@@H](Cc2ccccc2Cl)NC(=O)[C@H](CC(N)=O)NC1=O, also called No. 84) [Ac-Arg-cyclo(Glu-Asn-D-Phe(2-Cl)-Arg-Trp-Orn)-NH2] ?
Result: 7

Task: So what does the record say about Ki for Ac-RES[dPhe(3-Cl)]RW[Orn]-NH2 (lactam 2-7, also called No. 35) [Ac-Arg-cyclo(Glu-Ser-D-Phe(3-Cl)-Arg-Trp-Orn)-NH2] ?
Result: 10

Task: So what does the record say about Ki for Ac-RES[dPhe(2-Cl)]RW[Orn]-NH2 (lactam 2-7; SMILES CC(=O)N[C@@H](CCCNC(=N)N)C(=O)N[C@H]1CCC(=O)NCCC[C@@H](C(N)=O)NC(=O)[C@H](Cc2c[nH]c3ccccc23)NC(=O)[C@H](CCCNC(=N)N)NC(=O)[C@@H](Cc2ccccc2Cl)NC(=O)[C@H](CO)NC1=O, also called No. 31) [Ac-Arg-cyclo(Glu-Ser-D-Phe(2-Cl)-Arg-Trp-Orn)-NH2] ?
Result: 8
